biological target: T1, human CD47 (human, UniProt Q08722 19-323); assay: flow cytometry on RBCs, antibody 10 ng/ml
T1 construct: whole, on cells; also called CD47 on human red blood cells
T1 sequence (Q08722 19-323): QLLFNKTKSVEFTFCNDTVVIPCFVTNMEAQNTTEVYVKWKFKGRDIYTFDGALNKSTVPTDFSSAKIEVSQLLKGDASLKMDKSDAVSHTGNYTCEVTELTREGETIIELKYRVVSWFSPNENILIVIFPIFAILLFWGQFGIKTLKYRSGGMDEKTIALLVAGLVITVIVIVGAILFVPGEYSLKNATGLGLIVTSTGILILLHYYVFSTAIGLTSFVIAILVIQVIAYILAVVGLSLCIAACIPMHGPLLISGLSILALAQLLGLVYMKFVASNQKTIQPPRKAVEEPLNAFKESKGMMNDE
assay.metric: mean fluorescence relative to chimeric antibody

binder | recorded.measurement
pVxK7b-037-hum07-LC/pVxK7b-037-hum07-HC (antibody, human IgG1, V domains shown, Full-length human IgG1/kappa in CHO supernatant; Variable entries end within framework 4 (...FGQG / ...WGQG); also called Clone 7) VH: QVQLQESGPGLVKPGATVKISCKVSGYTFTNYYVFWVRQARGQRLEWIGDINPVNGDTNFNEKFKNRVTITADKSTSTAYMELSSLRSEDTAVYYCARGGYTMDYWGQG VL: DIVMTQTPLSLPVTPGEPASISCRSSQSLVHSNGNTYLHWYLQKPGQSPQLLIYKVSYRFSGVPDRFSGSGSGTDFTLKISRVEAEDVGVYYCSQNTHVPRTFGQG | 0.5 fold of chimera

Turning now to a further binder:
Give the reported mean fluorescence relative to chimeric antibody for this binder. pVxK7b-037-hum21-LC/pVxK7b-037-hum21-HC (antibody, human IgG1, V domains shown, Full-length human IgG1/kappa in CHO supernatant; Variable entries end within framework 4 (...FGQG / ...WGQG); also called Clone 21) VH: QVQLQESGPGLVKPSQTLSLTCTVSGYTFTNYYVFWVRQARGQRLEWIGDINPVNGDTNFNEKFKNRLTISKDTSKNQVVLTMTNMDPVDTATYYCARGGYTMDYWGQG VL: AIQLTQSPSSLSASVGDRVTITCRSSQSLVHSNGNTYLHWYQQKPGQAPRLLIYKVSYRFSGVPDRFSGSGSGTDFTLKISRVEAEDVGVYYCSQNTHVPRTFGQG
1.2 fold of chimera

Entry source: patent US20140161799A1
